Reference source for all entries: the supplement of paper PMC7877785

assay: self-splicing fitness, log relative to wild type (ln ratio); higher = more splicing; Tetrahymena group I intron in knt gene, E. coli kanamycin selection, DiMSum; sequences stand for … in CUCUCU…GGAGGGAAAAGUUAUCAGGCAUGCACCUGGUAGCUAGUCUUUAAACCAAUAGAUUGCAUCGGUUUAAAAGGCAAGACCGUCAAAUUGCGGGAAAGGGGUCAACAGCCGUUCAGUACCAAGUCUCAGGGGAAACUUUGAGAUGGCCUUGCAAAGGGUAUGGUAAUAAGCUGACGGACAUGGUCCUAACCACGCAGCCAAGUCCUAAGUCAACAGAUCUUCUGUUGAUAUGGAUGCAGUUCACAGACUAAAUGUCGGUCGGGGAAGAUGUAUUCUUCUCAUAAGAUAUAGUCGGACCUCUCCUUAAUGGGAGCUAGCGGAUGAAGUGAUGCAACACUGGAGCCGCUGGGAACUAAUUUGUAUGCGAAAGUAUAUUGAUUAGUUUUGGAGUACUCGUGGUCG; conditions: 37 °C;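 also: selection with 25 µg/mL kanamycin versus none on LB agar overnight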
Quick reference for self-splicing fitness (ln) among some sequences
Respond using a number only.

INSERT INTO assay_data (sequence_string, number) VALUES
  ('GACAAGCAAUAUUACGGUUU', -0.351),
  ('CGGUAGCAAUAUUACGCUAA', -1.85);

Form field self-splicing fitness (ln), entry AAAGAGCAAUAUUACGGACC : -1.61

Form field self-splicing fitness (ln), entry CCGAAGCAAUAUUACGAGUA : -2.92

* * *

experiment: self-splicing fitness, log relative to wild type (ln ratio); higher = more splicing; Tetrahymena group I intron in knt gene, E. coli kanamycin selection, DiMSum; sequences stand for … in CUCUCU…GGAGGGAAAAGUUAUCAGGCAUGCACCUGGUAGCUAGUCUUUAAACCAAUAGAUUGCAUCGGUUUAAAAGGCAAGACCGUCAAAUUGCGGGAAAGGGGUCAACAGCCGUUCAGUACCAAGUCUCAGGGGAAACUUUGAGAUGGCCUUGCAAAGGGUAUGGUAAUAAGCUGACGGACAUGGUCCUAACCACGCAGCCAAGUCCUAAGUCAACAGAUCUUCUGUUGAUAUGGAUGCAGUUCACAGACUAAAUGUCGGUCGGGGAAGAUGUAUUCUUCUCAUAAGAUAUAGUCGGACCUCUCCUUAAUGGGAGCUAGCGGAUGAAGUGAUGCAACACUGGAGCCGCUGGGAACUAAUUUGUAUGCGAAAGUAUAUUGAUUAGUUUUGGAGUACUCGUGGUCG; conditions: 30 °C
MEASURE NAME: self-splicing fitness (ln)
Respond using a number only.

// below: answered sequences
INSERT INTO results (sequence_string, number) VALUES
  ('AUAAAGCAAUAUUACGGCCC', 0.659),
  ('CAGGAGCAAUAUUACGUAGU', -3.42),
  ('GGCAAGCAAUAUUACGUGCA', -0.303),
  ('GAUAAGCAAUAUUACGCUCA', -1),
  ('AGCAAGCAAUAUUACGGUGC', -1.6),
  ('UAUCAGCAAUAUUACGACAA', -0.495);

Form field self-splicing fitness (ln), entry AUCUAGCAAUAUUACGCGUC : -3.53

Form field self-splicing fitness (ln), entry GCAAAGCAAUAUUACGAAAG : -2.86

Form field self-splicing fitness (ln), entry AUGUAGCAAUAUUACGAUUG : -1.21

Form field self-splicing fitness (ln), entry CCAUAGCAAUAUUACGACUC : -3.37

Form field self-splicing fitness (ln), entry ACAAAGCAAUAUUACGUGCC : -1.14

Form field self-splicing fitness (ln), entry ACCGAGCAAUAUUACGUGUG : -2.5
